- Tested on: UniProt:P15538
- Sequence (P15538 25-503): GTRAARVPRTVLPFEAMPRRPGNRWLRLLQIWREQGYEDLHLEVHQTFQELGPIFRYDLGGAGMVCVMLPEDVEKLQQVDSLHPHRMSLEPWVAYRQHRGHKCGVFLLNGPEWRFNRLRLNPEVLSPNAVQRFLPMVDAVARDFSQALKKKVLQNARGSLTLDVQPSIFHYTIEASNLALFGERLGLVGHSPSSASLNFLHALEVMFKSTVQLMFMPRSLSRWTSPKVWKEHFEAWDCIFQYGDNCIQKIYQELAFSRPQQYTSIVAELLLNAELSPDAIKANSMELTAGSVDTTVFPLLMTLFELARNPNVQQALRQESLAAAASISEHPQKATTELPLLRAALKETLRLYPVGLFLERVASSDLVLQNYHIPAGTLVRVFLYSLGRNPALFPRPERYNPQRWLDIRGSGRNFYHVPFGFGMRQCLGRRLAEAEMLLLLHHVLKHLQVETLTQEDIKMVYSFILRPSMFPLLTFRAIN
- Procedure details: Cellular assay for CYP11B1 inhibition (V79MZh11B1 hamster fibroblasts, substrate 11-deoxycorticosterone)
- Measurement context: ratio IC50 (CYP11B2)/IC50 (CYP11B1)
Consider the reported sf: selectivity factor: IC50 (CYP11B2)/IC50 (CYP11B1) of an entry and match it to a band in lower band = under 10, central band = from 10 up to 20, upper band = 20 and over

Known results for compounds:
# bin lookup: classify "O=Cc1ccc(-c2ccc(Cn3ccnc3)cn2)s1" by its sf: selectivity factor: IC50 (CYP11B2)/IC50 (CYP11B1)
central band

# bin lookup: classify "c1cn(Cc2ccc(-c3ccsc3)nc2)cn1" by its sf: selectivity factor: IC50 (CYP11B2)/IC50 (CYP11B1)
upper band

# bin lookup: classify "Fc1ccc(-c2ccc(Cn3ccnc3)cn2)cc1F" by its sf: selectivity factor: IC50 (CYP11B2)/IC50 (CYP11B1)
lower band

***
# bin lookup: classify "Nc1cccc(-c2ccc(Cn3ccnc3)cn2)c1" by its sf: selectivity factor: IC50 (CYP11B2)/IC50 (CYP11B1)
upper band

# bin lookup: classify "Clc1ccc(-c2ccc(Cn3ccnc3)cn2)s1" by its sf: selectivity factor: IC50 (CYP11B2)/IC50 (CYP11B1)
lower band

# bin lookup: classify "c1csc(-c2ccc(Cn3ccnc3)cn2)c1" by its sf: selectivity factor: IC50 (CYP11B2)/IC50 (CYP11B1)
central band

# bin lookup: classify "Oc1ccc(-c2ccc(Cn3ccnc3)cn2)cc1F" by its sf: selectivity factor: IC50 (CYP11B2)/IC50 (CYP11B1)
central band

# bin lookup: classify "c1ccc(-c2ccc(Cn3ccnc3)cn2)cc1" by its sf: selectivity factor: IC50 (CYP11B2)/IC50 (CYP11B1)
central band

# bin lookup: classify "Fc1ccccc1-c1ccc(Cn2ccnc2)cn1" by its sf: selectivity factor: IC50 (CYP11B2)/IC50 (CYP11B1)
upper band
